ASSAY READOUT: melting point

Some entries whose results are on file:
>  <COMPOUND>
N#Cc1ccc(-c2nc(N3C(=O)OCC34CC4)sc2F)cc1 [Example 55]

>  <melting point>
222 to 224 °C

$$$$
>  <COMPOUND>
Cc1sc(N2C(=O)OCC2(C)C)nc1-c1ccc(C#N)cc1 [Example 57]

>  <melting point>
192.5 to 193 °C

$$$$
>  <COMPOUND>
CC1(C)COC(=O)N1c1nc(-c2ccc(C#N)cc2)c(F)s1 [Example 58]

>  <melting point>
177 to 178 °C

$$$$
>  <COMPOUND>
CCC[C@H]1COC(=O)N1c1nc(-c2ccc(C#N)cc2)cs1 [Example 23]

>  <melting point>
132 to 135 °C

$$$$
>  <COMPOUND>
CCC1(CC)COC(=O)N1c1nc(-c2ccc(C#N)cc2)c(F)s1 [Example 53]

>  <melting point>
151 to 153 °C

$$$$
>  <COMPOUND>
CC[C@H]1COC(=O)N1c1nc(-c2ccc(C#N)cc2)c(C#N)s1 [Example 15]

>  <melting point>
201 to 203 °C

$$$$
>  <COMPOUND>
COC(=O)[C@@H]1COC(=O)N1c1nc(-c2ccc(Br)cc2)cs1 [Example 70]

>  <melting point>
165 to 167 °C

$$$$
>  <COMPOUND>
C[C@@H]1COC(=O)N1c1nc(-c2ccc(C#N)cc2)cs1 [Example 2]

>  <melting point>
227 to 228 °C

$$$$
>  <COMPOUND>
CCC[C@H]1COC(=O)N1c1nc(-c2ccc(Br)cc2)cs1 [Example 22]

>  <melting point>
116 to 118 °C

$$$$
>  <COMPOUND>
CCCCC1COC(=O)N1c1nc(-c2ccc(C#N)cc2)cs1 (stereo not drawn) [Example 48]

>  <melting point>
134 to 137 °C

$$$$

Q: Using the record for CC1OC(=O)N(c2nc(-c3ccc(C#N)cc3)cs2)C1(C)C (stereo not drawn) [Example 62] , report its melting point.
Ans: 166 to 167 °C

Q: Tell me the measured melting point of N#Cc1ccc(-c2csc(N3C(=O)OC[C@@H]3CC(F)(F)F)n2)cc1 [Example 68] , please.
Ans: 235 to 238 °C

Q: melting point lookup needed for CC[C@H]1COC(=O)N1c1nc(-c2ccc(C#N)cc2)cs1 [Example 8] , thanks.
Ans: 173 to 175 °C

Q: Quick check: melting point of C[C@H]1COC(=O)N1c1nc(-c2ccc(C#N)cc2)cs1 [Example 4] ?
Ans: 205 to 207 °C

Q: Which melting point is listed for O=C1OCC(C(F)(F)F)N1c1nc(-c2ccc(Br)cc2)cs1 (stereo not drawn) [Example 64] ?
Ans: 154 to 156 °C

Q: I have this compound here, N#Cc1ccc(-c2csc(N3C(=O)OC[C@H]3C(F)(F)F)n2)cc1 [Example 65] , and I need its recorded melting point.
Ans: 208 to 209 °C

Q: What value of measured melting point is listed for Cc1sc(N2C(=O)OCC2(C)C)nc1-c1ccc(Br)cc1 [Example 56] ?
Ans: 175 to 176.5 °C

Q: Reported melting point for CC1COC(=O)N1c1nc(-c2ccc(C#N)cc2)cs1 (stereo not drawn) [Example 51] : what is it?
Ans: 215 to 216 °C

Q: I would be grateful if you could share the reported melting point for N#Cc1ccc(-c2csc(N3C(=O)OC[C@H]3c3ccccc3)n2)cc1 [Example 45] .
Ans: 243 to 245 °C

---

Measured melting point of individual entries

A selection of reference data follows.
>  <MOLECULE>
CC(C)C[C@H]1COC(=O)N1c1nc(-c2ccc(Br)cc2)cs1

>  <TEST RESULT>
144 to 146 °C

$$$$
>  <MOLECULE>
O=C1OC[C@@H](Cc2ccccc2)N1c1nc(-c2ccc(Br)cc2)cs1

>  <TEST RESULT>
177 to 179 °C

$$$$
>  <MOLECULE>
CC[C@H]1COC(=O)N1c1nc(-c2ccc(Br)cc2)c(F)s1

>  <TEST RESULT>
105 to 107 °C

$$$$
>  <MOLECULE>
CC1(C)COC(=O)N1c1nc(-c2cccc(Br)c2)cs1

>  <TEST RESULT>
142 to 144 °C

$$$$
>  <MOLECULE>
CC1(C)COC(=O)N1c1nc(-c2ccc(C#N)s2)cs1

>  <TEST RESULT>
250 to 251 °C

$$$$
>  <MOLECULE>
O=C1OC[C@@H](CO)N1c1nc(-c2ccc(Br)cc2)cs1

>  <TEST RESULT>
189 to 192 °C

$$$$
>  <MOLECULE>
CCCCC1COC(=O)N1c1nc(-c2ccc(Br)cc2)cs1 (stereo not drawn)

>  <TEST RESULT>
153 to 155 °C

$$$$
>  <MOLECULE>
CCC[C@@H]1COC(=O)N1c1nc(-c2ccc(C#N)cc2)cs1

>  <TEST RESULT>
131 to 133 °C

$$$$

Next molecule, melting point to be filled in.
Q: Would you kindly share the measured melting point for CCC1COC(=O)N1c1nc(-c2ccc(Br)cc2)cs1 (stereo not drawn) ?
Ans: 148.5 °C

---

- TARGET OR SYSTEM: progesterone receptor (PR) (Homo sapiens, UniProt P06401)
- Construct: in live, intact (whole) cells using the human breast carcinoma T47D cell line; endogenous in cells
- PROTOCOL NOTES: Progesterone receptor whole cell competition binding assay using T47D cells
- CONDITION: intact T47D cells, 3 nM 3H-progesterone, 3 h at 37° C.
Param label: returns YES when Ki < 50 nM, returns NO otherwise, including exact equality.

Record excerpt, results attached:
>  <COMPOUND>
C[C@H]1COC(=O)N1c1nc(-c2ccc(C#N)cc2)cs1

>  <CLASS>
NO

$$$$
>  <COMPOUND>
O=C1OCC2(CCCC2)N1c1nc(-c2ccc(Br)cc2)cs1

>  <CLASS>
NO

$$$$
>  <COMPOUND>
N#Cc1ccc(-c2csc(N3C(=O)OC[C@H]3CF)n2)cc1

>  <CLASS>
YES

$$$$

Q: Lab note: confirm whether the reported Ki for this compound is below 50 nM, equality not counting. compound: CC1COC(=O)N1c1nc(-c2ccc(C#N)cc2)cs1 (stereo not drawn)
Ans: YES

---

- TARGET OR SYSTEM: progesterone receptor (PR) (Homo sapiens, UniProt P06401)
- Construct: in live, intact (whole) cells using the human breast carcinoma T47D cell line; endogenous in cells
- PROTOCOL NOTES: Progesterone receptor whole cell competition binding assay using T47D cells
- CONDITION: intact T47D cells, 3 nM 3H-progesterone, 3 h at 37° C.
- Experimental: (2) Progesterone Receptor Whole Cell Competition Binding Assay Using T47D Cells PURPOSE: To evaluate the progesterone receptor (PR) binding activity of progestins or antiprogestins in live, intact (whole) cells using the human breast carcinoma T47D cell line and ^3H-progesterone as the labeled ligand. […] Following incubation, media was carefully removed and cells were washed 3× with 200 μL 5% RC each wash. […] Plates were read on the Wallac Microbeta® 1450 plate reader. […]
Consider the following molecules and their measured log10 of Ki readings.
Base-10 log of Ki, unit nM.

>  <MOLECULE>
O=C1NCCN1c1nc(-c2ccc(Br)cc2)cs1

>  <TARGET OR SYSTEM>
progesterone receptor (PR) (Homo sapiens, UniProt P06401)

>  <TEST RESULT>
3.32

$$$$

Q: What does the data say about its log10 of Ki? Entry: `C[C@@H]1COC(=O)N1c1nc(-c2ccc(C#N)cc2)cs1`
Ans: 1.64

Q: // lookup log10 of Ki for `CC1(C)COC(=O)N1c1nc(-c2ccc(Br)cc2)cs1`
Ans: 1.58

Q: Bench note: what log10 of Ki did `CC1(C)OCC(=O)N1c1nc(-c2ccc(Br)cc2)cs1` show?
Ans: 2.77

Q: Dear colleague, I am looking for the recorded log10 of Ki of the following molecule: `CCC[C@H]1COC(=O)N1c1nc(-c2ccc(C#N)cc2)cs1`
Ans: 1.61

Q: // returns reported log10 of Ki for input `N#Cc1ccc(-c2csc(N3C(=O)OC[C@@H]3C(F)(F)F)n2)cc1`
Ans: 2.33

Q: Using the record for `O=C1OC[C@@H](CCl)N1c1nc(-c2ccc(Br)cc2)cs1` , report its log10 of Ki.
Ans: 1.30

Q: Requested field: log10 of Ki. Item: `O=C1OCC2(CCC2)N1c1nc(-c2ccc(Br)cc2)cs1`
Ans: 1.96

Q: Could you share which log10 of Ki value was measured for CCC1CN(c2nc(-c3ccc(C#N)cc3)cs2)C(=O)O1 (stereo not shown) ?
Ans: 2.85
